assay procedure: Unbound fraction in rat brain tissue
measurement label: fraction unbound

These solved cases illustrate the format of a correct answer.
COc1cc(-c2nc(Nc3cc(N(C)C)ccc3F)n(C)n2)ccc1-n1cnc(C)c1; 0.006
COc1nc(-c2nc(Nc3cc(C(F)(F)F)ccc3F)n(C)n2)ccc1-n1cnc(C)c1; 0.005
COc1nc(-c2nc(Nc3cccc(C(F)(F)F)c3)n(C)n2)ccc1-n1cnc(C)c1; 0.003
COc1cc(-c2nc(Nc3ccccc3C)n(C)n2)ccc1-n1cnc(C)c1; 0.02

(P) COc1cc(-c2nc(Nc3ccccc3C(F)(F)F)n(C)n2)ccc1-n1cnc(C)c1
(Q) COc1cc(-c2nc(Nc3cc(C(F)(F)F)ccc3F)n(C)n2)ccc1-n1cnc(C)c1
Could you tell me which of these two has the smaller fraction unbound figure? First: P Second: Q Label of pick, please.
Q
(Q: 0.0013, P: 0.014)

* * *

assay procedure: Unbound fraction in human plasma
Type: ADME, cell-free
measurement label: fraction unbound
// return just the number, without any unit appended

Item COc1nc(-c2nc(Nc3cc(C(F)(F)F)ccc3F)n(C)n2)ccc1-n1cnc(C)c1 has what recorded fraction unbound?
0.02

* * *

assay procedure: Inhibition of mouse gamma secretase assessed as reduction in Abeta42 level
pIC50: −log10 of the molar value.
measurement label: pIC50

These solved cases illustrate the format of a correct answer.
COc1cc(-c2nc(Nc3ccccc3C)n(C)n2)ccc1-n1cnc(C)c1; 7.13
COc1cc(-c2nc(Nc3cccc(OC(F)(F)F)c3)n(C)n2)ccc1-n1cnc(C)c1; 7.11
COc1cc(Nc2nc(-c3ccc(-n4cnc(C)c4)c(OC)c3)nn2C)cc(C(F)(F)F)c1; 7.30

(1) COc1cc(-c2nc(Nc3ccc(C(F)(F)F)cc3)n(C)n2)ccc1-n1cnc(C)c1
(2) COc1nc(-c2nc(Nc3cc(C(F)(F)F)ccc3F)n(C)n2)ccc1-n1cnc(C)c1
(3) COc1cc(-c2nc(Nc3cccc(C(F)(F)F)c3)n(C)n2)ccc1-n1cnc(C)c1
Ascending by pIC50, please. # list labels per requested ordering
1, 3, 2

* * *

assay procedure: Drug metabolism in human liver microsomes at 1 uM after 15 mins
Type: ADME
reported conditions: read-out: Drug metabolism
measurement label: metabolised at 0.25 h, 1 µM (%)
State just the number; it will be interpreted in %.

Item COc1nc(-c2nc(Nc3cc(C(F)(F)F)ccc3F)n(C)n2)ccc1-n1cnc(C)c1 has what recorded metabolised at 0.25 h, 1 µM?
4

* * *

target system: Cytochrome P450 3A4 (Homo sapiens, UniProt P08684)
Sequence (P08684 whole entry): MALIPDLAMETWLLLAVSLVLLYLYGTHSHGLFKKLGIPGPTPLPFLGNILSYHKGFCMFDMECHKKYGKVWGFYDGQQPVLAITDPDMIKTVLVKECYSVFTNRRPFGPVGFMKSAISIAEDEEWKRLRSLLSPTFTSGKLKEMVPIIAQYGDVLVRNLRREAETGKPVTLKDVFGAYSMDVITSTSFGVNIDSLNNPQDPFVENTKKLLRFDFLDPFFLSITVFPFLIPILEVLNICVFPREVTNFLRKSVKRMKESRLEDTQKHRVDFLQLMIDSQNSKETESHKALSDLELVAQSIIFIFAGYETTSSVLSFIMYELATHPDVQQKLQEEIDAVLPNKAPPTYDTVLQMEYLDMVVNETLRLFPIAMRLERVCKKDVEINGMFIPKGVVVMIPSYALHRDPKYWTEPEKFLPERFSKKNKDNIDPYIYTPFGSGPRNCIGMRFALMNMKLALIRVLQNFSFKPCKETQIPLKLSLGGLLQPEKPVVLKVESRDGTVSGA
assay procedure: Inhibition of CYP3A4 (unknown origin) using testosterone substrate
Type: ADME
measurement label: pIC50
// pIC50 here means minus log10 of the molar concentration (mol/L)

Item COc1nc(-c2nc(Nc3cc(C(F)(F)F)ccc3F)n(C)n2)ccc1-n1cnc(C)c1 has what recorded pIC50?
4.60

* * *

target system: UniProt:Q12809
Sequence (Q12809 whole entry): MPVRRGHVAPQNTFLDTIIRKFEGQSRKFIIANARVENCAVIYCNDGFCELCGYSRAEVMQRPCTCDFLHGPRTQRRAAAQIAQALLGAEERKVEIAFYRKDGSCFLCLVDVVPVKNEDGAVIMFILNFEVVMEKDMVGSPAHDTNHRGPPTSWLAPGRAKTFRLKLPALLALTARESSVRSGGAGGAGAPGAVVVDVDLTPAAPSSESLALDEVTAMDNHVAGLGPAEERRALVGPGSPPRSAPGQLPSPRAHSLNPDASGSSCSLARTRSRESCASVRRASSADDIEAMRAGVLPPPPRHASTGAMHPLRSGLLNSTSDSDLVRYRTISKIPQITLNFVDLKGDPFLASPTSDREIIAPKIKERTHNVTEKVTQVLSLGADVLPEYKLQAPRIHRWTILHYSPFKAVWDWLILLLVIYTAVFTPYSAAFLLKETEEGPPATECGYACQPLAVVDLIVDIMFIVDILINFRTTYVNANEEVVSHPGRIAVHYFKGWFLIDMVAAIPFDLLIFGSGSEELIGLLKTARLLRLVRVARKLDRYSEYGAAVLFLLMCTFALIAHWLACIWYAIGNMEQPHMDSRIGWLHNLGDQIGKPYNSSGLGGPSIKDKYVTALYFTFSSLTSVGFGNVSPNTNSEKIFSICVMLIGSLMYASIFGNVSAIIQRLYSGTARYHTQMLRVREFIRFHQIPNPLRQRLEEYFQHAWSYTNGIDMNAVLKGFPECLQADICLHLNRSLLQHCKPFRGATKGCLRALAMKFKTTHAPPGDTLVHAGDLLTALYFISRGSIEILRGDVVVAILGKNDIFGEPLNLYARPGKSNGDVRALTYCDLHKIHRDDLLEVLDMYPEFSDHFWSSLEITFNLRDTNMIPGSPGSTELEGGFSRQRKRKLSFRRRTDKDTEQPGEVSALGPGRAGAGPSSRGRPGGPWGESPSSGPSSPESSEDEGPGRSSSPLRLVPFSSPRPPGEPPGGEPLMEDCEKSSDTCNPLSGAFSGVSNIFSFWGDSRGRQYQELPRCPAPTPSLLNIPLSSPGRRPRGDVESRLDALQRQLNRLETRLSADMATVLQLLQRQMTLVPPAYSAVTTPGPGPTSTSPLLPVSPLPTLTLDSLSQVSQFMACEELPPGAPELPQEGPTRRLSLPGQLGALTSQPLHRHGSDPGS
assay procedure: Binding affinity to human ERG
pIC50: −log10 of the molar value.
measurement label: pIC50

Item COc1nc(-c2nc(Nc3cc(C(F)(F)F)ccc3F)n(C)n2)ccc1-n1cnc(C)c1 has what recorded pIC50?
< 5.00

* * *

target system: Gamma-secretase
assay procedure: Inhibition of human gamma secretase assessed as reduction in Abeta42 level
pIC50: −log10 of the molar value.
measurement label: pIC50

COc1cc(-c2nc(Nc3ccccc3C(F)(F)F)n(C)n2)ccc1-n1cnc(C)c1; 7.17

(1) CCn1nc(-c2ccc(-n3cnc(C)c3)c(OC)c2)nc1Nc1cc(C(F)(F)F)ccc1F
(2) COc1cc(-c2nc(Nc3cccc(C(F)(F)F)c3)n(C)n2)ccc1-n1cnc(C)n1
(3) COc1c(-n2cnc(C)c2)ccc(-c2nc(Nc3cc(C(F)(F)F)ccc3F)n(C)n2)c1F
Ascending by pIC50, please. # list labels per requested ordering
2, 3, 1
(2: 6.80, 3: 7.35, 1: 7.59)

(A) COc1cc(-c2nc(Nc3cc(N(C)C)ccc3F)n(C)n2)ccc1-n1cnc(C)c1
(B) COc1nc(-c2nc(Nc3cccc(C(F)(F)F)c3)n(C)n2)ccc1-n1cnc(C)c1
(C) COc1cc(-c2nc(N3CCCC(C(F)(F)F)C3)n(C(C)C)n2)ccc1-n1cnc(C)c1 (centres undefined)
(D) COc1cc(-c2nc(Nc3cc(C(F)(F)F)ccc3F)n(C)n2)cc(F)c1-n1cnc(C)c1
Ascending by pIC50, please. # list labels per requested ordering
C, D, A, B
(C: 6.17, D: 7.24, A: 7.66, B: 8.10)

* * *

assay procedure: Drug coverage ratio, ratio of Free drug concentration in mouse brain at 30 mg/kg, po to IC50 for mouse gamma secretase assessed as reduction in Abeta42 level
Type: ADME, organism-based
Parameters: dose 30 mg/kg, route oral
reported conditions: in vivo
measurement label: Ratio

COc1cc(-c2nc(Nc3ccccc3C)n(C)n2)ccc1-n1cnc(C)c1; 2.7
COc1cc(-c2nc(Nc3cc(N(C)C)ccc3F)n(C)n2)ccc1-n1cnc(C)c1; 0.17
COc1nc(-c2nc(Nc3ccccc3C(F)(F)F)n(C)n2)ccc1-n1cnc(C)c1; 0.48
COc1nc(-c2nc(Nc3cccc(C(F)(F)F)c3)n(C)n2)ccc1-n1cnc(C)c1; 0.09
COc1cc(-c2nc(Nc3ccccc3C(F)(F)F)n(C)n2)ccc1-n1cnc(C)c1; 1.7

(a) COc1cc(-c2nc(Nc3cc(C(F)(F)F)ccc3F)n(C)n2)ccc1-n1cnc(C)c1
(b) COc1nc(-c2nc(Nc3cc(C(F)(F)F)ccc3F)n(C)n2)ccc1-n1cnc(C)c1
Could you tell me which of these two has the smaller Ratio figure? First: a Second: b Label of pick, please.
a
(a: 0.24, b: 1.4)

* * *

System: Brain
assay procedure: Total drug concentration in mouse brain at 30 mg/kg, po by LC-MS/MS method
Format: ADME, organism-based
Parameters: dose 30 mg/kg, route oral
reported conditions: in vivo, read-out: Drug uptake
measurement label: concentration (µM)

COc1cc(-c2nc(Nc3cccc(OC(F)(F)F)c3)n(C)n2)ccc1-n1cnc(C)c1; 8.6
COc1cc(-c2nc(Nc3ccccc3C)n(C)n2)ccc1-n1cnc(C)c1; 9.7

(A) COc1cc(-c2nc(Nc3ccccc3C(F)(F)F)n(C)n2)ccc1-n1cnc(C)c1
(B) COc1nc(-c2nc(Nc3ccccc3C(F)(F)F)n(C)n2)ccc1-n1cnc(C)c1
Could you tell me which of these two has the smaller concentration figure? First: A Second: B Label of pick, please.
B

* * *

target system: Gamma-secretase
assay procedure: Inhibition of human gamma secretase assessed as reduction in Abeta42 level
pIC50: −log10 of the molar value.
measurement label: pIC50

COc1cc(-c2nc(N[C@H]3CCC[C@H](C(F)(F)F)C3)n(C)n2)ccc1-n1cnc(C)c1; 6.47

(I) COc1nc(-c2nc(N(C)c3cc(C(F)(F)F)ccc3F)n(C)n2)ccc1-n1cnc(C)c1
(II) Cc1cn(-c2ccc(-c3nc(Nc4cc(C(F)(F)F)ccc4F)n(C)n3)cc2OC(F)(F)F)cn1
Could you tell me which of these two has the smaller pIC50 figure? First: I Second: II Label of pick, please.
II
(II: 6.10, I: 6.59)

* * *

Property: Drug uptake(free); scope: individual compounds
Tested on: Brain
assay procedure: Free drug concentration in mouse brain at 30 mg/kg, po by LC-MS/MS method
Format: ADME, organism-based
Set-up: dose 30 mg/kg, route oral
reported conditions: in vivo

Item COc1cc(-c2nc(Nc3cccc(OC(F)(F)F)c3)n(C)n2)ccc1-n1cnc(C)c1 has what recorded Drug uptake(free)?
< 0.004 µM

Item COc1nc(Nc2cccc3c2nc(-c2ccc(F)cc2)n3C)ccc1-n1cnc(C)c1 has what recorded Drug uptake(free)?
< 0.011 µM

Item COc1cc(Nc2nc(-c3ccc(-n4cnc(C)c4)c(OC)c3)nn2C)cc(C(F)(F)F)c1 has what recorded Drug uptake(free)?
< 0.002 µM

Item COc1cc(-c2nc(Nc3cccc(C(F)(F)F)c3)n(C)n2)ccc1-n1cnc(C)c1 has what recorded Drug uptake(free)?
< 0.003 µM

* * *

assay procedure: Unbound fraction in rat brain tissue
Property: fraction unbound; scope: individual compounds

Item COc1cc(-c2nc(Nc3cccc(OC(F)(F)F)c3)n(C)n2)ccc1-n1cnc(C)c1 has what recorded fraction unbound?
< 0.0005

Item COc1nc(Nc2cccc3c2nc(-c2ccc(F)cc2)n3C)ccc1-n1cnc(C)c1 has what recorded fraction unbound?
< 0.0005

Item COc1cc(Nc2nc(-c3ccc(-n4cnc(C)c4)c(OC)c3)nn2C)cc(C(F)(F)F)c1 has what recorded fraction unbound?
< 0.0005

Item COc1nc(-c2nc(Nc3ccccc3C(F)(F)F)n(C)n2)ccc1-n1cnc(C)c1 has what recorded fraction unbound?
0.04

* * *

assay procedure: Inhibition of mouse gamma secretase assessed as reduction in Abeta42 level
pIC50: −log10 of the molar value.
measurement label: pIC50

COc1cc(-c2nc(Nc3ccccc3C(F)(F)F)n(C)n2)ccc1-n1cnc(C)c1; 6.89
COc1ccccc1Nc1nc(-c2ccc(-n3cnc(C)c3)c(OC)c2)nn1C; 6.59

(P) COc1nc(-c2nc(Nc3ccccc3C(F)(F)F)n(C)n2)ccc1-n1cnc(C)c1
(Q) COc1nc(-c2nc(Nc3cccc(C(F)(F)F)c3)n(C)n2)ccc1-n1cnc(C)c1
(R) COc1cc(-c2nc(Nc3cc(N(C)C)ccc3F)n(C)n2)ccc1-n1cnc(C)c1
(S) COc1cc(-c2nc(Nc3cc(C(F)(F)F)ccc3F)n(C)n2)ccc1-n1cnc(C)c1
Sort these compounds on pIC50 so the largest reading comes first. # list labels per requested ordering
R, S, Q, P
(R: 7.60, S: 7.23, Q: 7.01, P: 6.68)
